# protocolSummary: Acute toxicity (LD50)
# Set-up: species or system mice (ICR-JCL)
# conditionSet: mouse, in vivo, ip, Test 2; route and unit inferred
Consider the following molecules and their measured LD50 readings.

Recorded result, O=C(O)CCCc1ccc(N(CCCl)CCCl)cc1 [Sample No. 1, reference compound] , LD50: 20 mg/kg

Others:
Recorded result, C[C@]12CC[C@@H]3c4ccc(O)cc4CC[C@H]3[C@@H]1CC[C@@H]2OC(=O)COC(=O)CCCc1ccc(N(CCCl)CCCl)cc1 , LD50: > 1000 mg/kg
